Measured On: RSV F on RSV-A2 virus (Respiratory Syncytial Virus (RSV-A2), UniProt P03420 26-574)
Assay Overview: cell-based or functional assay
Measurement Type: Neutralization IC50 (RSV subtype A)

ADI-41494 (antibody, V domains shown, also called Ab 774; Antibody Number 774) VH: EVQLVESGGGLVQPGRSLRLSCTTSGFTFGDYAVTWVRQAPGKGLEWIGIMKSKTYRGTTDYAASLRGRFSISRDDSKSIAYLQMTSLKSEDTGVYYCVRGHDYGDPFDYWGQGTLVTVSS VL: QSVLTQPASVSGSPGQSITISCTGGSSDVGYYNYVSWYQQHPGKAPKLLIYDVNNRPSGVSDRFSGSKSGNTASLTISGLQPEDEADYYCSSYTRSRTWVFGGGTKLTVL | > 25 µg/mL
ADI-41535 (antibody, V domains shown) VH: QVTLKESGPALVKPTQTLTLTCTFSGFSLSTSRMCVSWIRQSPGKALEWLARIDWDDDKFFSTSLKTRLTISKDTSRNQVVLTMTNMDPVDTATYYCARTTVYASGGYYLYYFDYWGQGTLVTVSS VL: DIQLTQSPSSLPASVGDRVTITCRASQRIASYLNWYQQKPGKAPKVLIYAASNLQSGVPSRFSGSGSGTDFTLTINSLQPEDFATYYCQQSYTTPWTFGQGTKVEIK | > 25 µg/mL

API: the following record is the query input.
Problem: Hello, please tell me recorded Neutralization IC50 (RSV subtype A) for this one: ADI-41491 (antibody, V domains shown) VH: EVQLLESGGGLVQPGGSLRLSCAASGFTFSSYSMNWVRQAPGKGLEWVSYMSSDRSAIYYSDSVKDRFTISRDNAKNSLYLQMHSLRAEDTAVYYCARRYCSSTSCYRGLGYYYGMDVWGQGTTVTVSS VL: SYELTQPPSVSVAPGQTARITCGGSNIGNKDVHWYQQKPGQAPVLVVYDDSDRPSGIPERFAGSNSGNTATLTISRVEAGDEADYYCQVWHSAGDHVVFGGGTKLTVL
Result: > 25 µg/mL
